- system-tested: T1, human TSLP (human, UniProt Q969D9 29-159)
- T1 construct: also called hTSLP; rhTSLP
- experiment-summary: SPR
endpoint: Kd

| binder | reading |
| --- | --- |
| BDG38.134 (antibody, V domains shown, IgG1) VH: QMQLVESGGGVVQPGQSLRLSCAASGFEFRTYGMHWVRQAPGKGLEWLAVIWYDGSNTHYADSVKGRFTITRDNSKNTLNLQMNSLRAEDTAVYYCVRAPQWYNSAEAFDLWGQGTMVTVSS VL: SYVLTQPPSVSVAPGQTARITCGGNLIGARLVHWYQQKPGQAPVLVIYDDSDRPSHIPERFSGSNSGNTATLTISRVEAGDEADYYCQVWDYSADTMVFGGGTKLTVL | 0.00858 nM |
| BDG38.137 (antibody, V domains shown, IgG1) VH: QMQLVESGGGVVQPGQSLRLSCAASGFEFRTYGMHWVRQAPGKGLEWVAVIWDDGSNTHYADSVKGRFTITRDNSKNTLNLQMNSLRAEDTAVYYCVRAPQWYLTAEAFDLWGQGTMVTVSS VL: SYVLTQPPSVSVAPGETATITCGGNLIGARLVHWYQQKPGQAPVLVIYDDSDRPSHIPERFSGSNSGNTATLTISRVEAGDEADYYCQVWDYSADTMVFGGGTKLTVL | 0.0161 nM |
| BDG38.125 (antibody, V domains shown, IgG1) VH: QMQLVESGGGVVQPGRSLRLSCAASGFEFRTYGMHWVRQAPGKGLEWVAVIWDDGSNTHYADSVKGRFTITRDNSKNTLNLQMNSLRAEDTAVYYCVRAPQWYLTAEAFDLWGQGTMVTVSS VL: SYVLTQPPSVSVAPGETATITCGGNLIGARLVHWYQQKPGQAPVLVIYDDSDRPSRIPERFSGSNIGNTATLTIERVEEGDEADYYCQVWDYSSDHMVFGGGTKLTVL | 0.0255 nM |
| BDG38.140 (antibody, V domains shown, IgG1) VH: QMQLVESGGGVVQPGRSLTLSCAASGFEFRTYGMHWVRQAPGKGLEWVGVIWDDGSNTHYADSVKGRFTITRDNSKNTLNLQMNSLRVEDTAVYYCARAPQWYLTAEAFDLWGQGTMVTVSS VL: SYILTQPPSVSVAPGETATITCGGNLIGAKLVHWYQQKPGQAPVLVIYDDSDRPSRIPERFSGSNIGNTATLTIEDVEAGDEADYYCQVWDYSANHMVFGGGTKLTVL | 0.00827 nM |
| BDG38.126 (antibody, V domains shown, IgG1) VH: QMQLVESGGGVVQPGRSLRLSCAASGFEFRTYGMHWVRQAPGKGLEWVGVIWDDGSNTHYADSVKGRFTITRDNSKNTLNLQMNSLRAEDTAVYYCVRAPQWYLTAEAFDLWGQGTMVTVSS VL: SYILTQPPSVSVAPGQTARITCGGNLIGAKLVHWYQQKPGQAPVLVIYDDSDRPSRIPERFSGSNIGNTATLTIERVEEGDEADYYCQVWDYSSDHMVFGGGTKLTVL | 0.0174 nM |
| BDG38.118 (antibody, V domains shown, IgG1) VH: QMQLVESGGGVVQPGRSLRLSCAASGFEFRTYGMHWVRQAPGKGLEWVGVIWYDGSATHYADSVKGRFTITRDNSKNTLNLQMNSLRVEDTAVYYCVRAPQWYLTAEAFDLWGQGTMVTVSS VL: SYILTQPPSVSVAPGETATITCGGNLIGARLVHWYQQKPGQAPVLVIYDDSDRPSRIPERFSGSNIGNTATLTISDVEEGDEADYYCQVWDYSSDHYVFGGGTKLTVL | 0.964 nM |
